- Test system: PPARa:RXRa (NR concentration 270 nM, RXRa partner concentration 90 nM)
- protocol: PBM binding z-score (relative to random genomic background probes); higher = stronger binding; sequences stand for … in GC…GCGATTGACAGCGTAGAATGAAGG
readout: PBM binding z-score
Give the figure by itself; no unit, no explanation.

Some sequences with recorded PBM binding z-score:
CCTATTAGTTGACCATAAGGTCAACCGAAGCTCG
4.06
GGAACGAGGGCAAAGTTTATAGCATCTGTCGACG
4.45
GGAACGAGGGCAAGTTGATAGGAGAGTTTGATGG
1.81
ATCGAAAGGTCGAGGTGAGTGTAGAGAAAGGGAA
4.69
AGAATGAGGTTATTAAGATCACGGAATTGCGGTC
3.18

Query: Would you kindly share the measured PBM binding z-score for `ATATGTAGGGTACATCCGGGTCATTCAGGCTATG` ?
Reply: 3.89

Query: What PBM binding z-score value was documented for this sequence, `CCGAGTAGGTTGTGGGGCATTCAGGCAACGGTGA` ?
Reply: 0.496

Query: Consider the sequence `TCATATAGGTAGAGGTGAAAGTCGAACGATATGA` and give its measured PBM binding z-score.
Reply: 2.43

Query: Which PBM binding z-score reading was recorded for the sequence `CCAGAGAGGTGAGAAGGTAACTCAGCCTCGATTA` ?
Reply: 2.17

Query: Query (sequence): `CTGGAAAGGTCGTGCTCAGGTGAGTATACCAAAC` ; field requested: PBM binding z-score
Reply: 4.7

Query: Entry under review: `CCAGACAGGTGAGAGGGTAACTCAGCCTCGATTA` . Reported PBM binding z-score?
Reply: 1.65

Query: # get_value(readout='PBM binding z-score', item= `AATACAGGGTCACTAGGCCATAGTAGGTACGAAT` )
Reply: 6.01

Query: Value lookup for PBM binding z-score; key = `TCTTGTAGATCAAGCAGGTTAACAAAGCCTGAGT`
Reply: 0.99

Query: PBM binding z-score for `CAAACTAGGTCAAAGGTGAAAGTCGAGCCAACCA` ?
Reply: 7.19

Query: I would be grateful if you could share the reported PBM binding z-score for `TTACCAAGGTGAGCTGAGGTCGTCGATCCAACTC` .
Reply: 1.82

Query: PBM binding z-score lookup needed for `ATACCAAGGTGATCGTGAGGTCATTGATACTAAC` , thanks.
Reply: 3.62

Query: Return reported PBM binding z-score; argument: `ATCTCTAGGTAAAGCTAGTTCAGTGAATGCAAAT`
Reply: 0.456

Query: Quick one: PBM binding z-score of `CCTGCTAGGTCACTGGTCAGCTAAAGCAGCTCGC` ?
Reply: 3.29

Query: For the sequence `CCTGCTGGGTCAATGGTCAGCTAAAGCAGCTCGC` , what PBM binding z-score is on record?
Reply: 2.95

Query: Need PBM binding z-score of `ACTAGTAGGCCAAGTTTGGGTCACTCAAACAAAG` , thanks.
Reply: 2.34

Query: What does the data say about its PBM binding z-score? Entry: `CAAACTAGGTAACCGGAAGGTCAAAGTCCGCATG`
Reply: 4.48

Query: Please report the recorded PBM binding z-score for `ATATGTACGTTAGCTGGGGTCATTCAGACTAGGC` .
Reply: 4.07

Query: Consider the sequence `TAGCCTAGGTCTTTGGGCCAGTATAGTACGCATC` and give its measured PBM binding z-score.
Reply: -1.04

Query: Quick one: PBM binding z-score of `AGTATGAGGTTAAGATCAGGGAAACAGAATACAT` ?
Reply: 3.08

Query: What does the record list as PBM binding z-score for `TATACAGGGTCAAAGGCCACAGTACGAATGTCGA` ?
Reply: 6.52

Reference for the values: the supplement of paper PMC6555819
